src = the supplement of paper PMC13380429

# Tested on: HepG2
# measurementDescription: cell viability relative to DMSO; higher = less toxic
# conditionSummary: 72 h; 1000 nM
Entries annotated with measured cell viability
The response must be a number in % with no trailing unit.

In the examples that follow, each entry is paired with its recorded cell viability.
compound	cell viability [%]
CC1=C(C(=O)O)N2C(=O)[C@@H](NC(=O)[C@H](N)c3ccc(O)cc3)[C@H]2SC1	103
C=CC[C@]1(O)CC[C@H]2[C@@H]3CCC4=CC(=O)CCC4=C3C=C[C@@]21C	90.2
CO[C@H]1C[C@H](O[C@@H]2/C(C)=C/C[C@@H]3C[C@@H](C[C@]4(CC[C@H](C)[C@@H](C5CCCCC5)O4)O3)OC(=O)[C@@H]3C=C(C)/C(=N/O)[C@H]4OC/C(=C\C=C\[C@@H]2C)[C@]43O)O[C@@H](C)[C@@H]1O	121
CC(C)(C)c1cc(C=C(C#N)C#N)cc(Br)c1O	119
N#Cc1cn([C@@H]2O[C@H](CO)[C@@H](O)[C@H]2O)c2ncnc(N)c12	-0.4

Any idea what cell viability was measured for O=C1NC(=O)/C(=C/c2ccc3c(c2)OC(F)(F)O3)S1 ?
98.9

Any idea what cell viability was measured for CC(C)[C@H](N)C(=O)OCC(CO)OCn1cnc2c(=O)nc(N)[nH]c21 (mixture of isomers) ?
95.8

Any idea what cell viability was measured for Cc1ccc(NC(=O)C(C)C)cc1C1CCN(Cc2ccc(Oc3ccc(F)c(F)c3)cc2)CC1 ?
103

Any idea what cell viability was measured for COc1ccc(Oc2c(Cl)cnn(C3c4ccccc4-c4ccccc43)c2=O)cc1 ?
108

Any idea what cell viability was measured for CC(C)c1ccc(CC(=O)N2CCC[C@@H](c3cccc(OC(C)(C)C(=O)O)c3)C2)cc1 ?
106

Any idea what cell viability was measured for COc1cc(C[C@H](C)[C@H](C)Cc2ccc3c(c2)OCO3)ccc1O ?
81.1

Any idea what cell viability was measured for Nc1nc(/C(=C/CC(=O)O)C(=O)N[C@@H]2C(=O)N3C(C(=O)O)=CCS[C@H]23)cs1 ?
95.3

* * *

Entries annotated with measured cell viability
# Tested on: Caco-2
# measurementDescription: cell viability relative to DMSO; higher = less toxic
# conditionSummary: 72 h; 1000 nM
The response must be a number in % with no trailing unit.

In the examples that follow, each entry is paired with its recorded cell viability.
compound	endpointUnit	cell viability
COc1ccc2c(c1)C(C(=O)N(Cc1ccc(N(C)C)cc1)c1ccc(C(C)C)cc1)CCC2 (stereo unspecified)	%	95.9
O=C(COP(=O)(O)O)[C@@H](O)[C@H](O)[C@H](O)COP(=O)(O)O [fosfructose]	%	94.7
O=C(NCc1ccc(OC(F)(F)F)cc1)C1c2ccccc2C(=O)N1C1CCOCC1 (stereo unspecified) [NAV-26]	%	96.8
CC(ONC(=O)c1cc(C(F)(F)F)cc(C(F)(F)F)c1)C(=O)Nc1ccc(Cl)cc1 (stereo unspecified) [CCG-1423]	%	97.4
Cc1cc(=O)[nH]c(=S)[nH]1 [methylthiouracil]	%	96.3

Any idea what cell viability was measured for CN[C@@H]1[C@@H](O[C@H]2O[C@H](CO)[C@@H](N)[C@H](O)[C@H]2O)O[C@H]2C[C@@H](N)[C@@H](O[C@H]3[C@H](O)[C@@H](O)[C@H](N)C[C@@H]3N)O[C@@H]2[C@@H]1O [apramycin] ?
104

* * *

# Tested on: Caco-2
# measurementDescription: cell viability relative to DMSO; higher = less toxic
# conditionSummary: 72 h; 1 nM
propertyMeasured: cell viability (%)
The response must be a number in % with no trailing unit.

> print(dat)
                                   molecule  systemname  propertymeasured  testresult
1  C[C@@H](C(=O)O)c1ccc(-c2ccccc2)c(F)c1 (racemic) [flurbiprofen-(+/-)]      Caco-2    cell viability        98.7

Any idea what cell viability was measured for COc1cc(OC)c(C(=O)CCCCN2CCC3(CC2)NC(=O)NC3=O)cc1NS(=O)(=O)c1ccc(C(F)(F)F)cc1 ?
102

Any idea what cell viability was measured for NC[C@H](O)c1ccc(O)c(O)c1 [norepinephrine] ?
88.9

Any idea what cell viability was measured for COc1cc(C[C@H](C)[C@H](C)Cc2ccc3c(c2)OCO3)ccc1O ?
87.3

Any idea what cell viability was measured for Cc1cccc(-c2[nH]c(CNc3ccccc3F)nc2-c2ccc3ncnn3c2)n1 ?
95.7

Any idea what cell viability was measured for CNc1cc2c(Nc3cccc(Br)c3)ncnc2cn1 ?
102

Any idea what cell viability was measured for CN1CCC(c2c[nH]c3ccc(O)cc23)CC1 ?
98.7

Any idea what cell viability was measured for CN[C@H](CNC(=O)N1CCC[C@@H]([C@@H](OCCNC(=O)OC)c2cccc(Cl)c2)C1)C[C@H]1CCCOC1 ?
98.2

Any idea what cell viability was measured for Cc1coc2c1C(=O)C(=O)c1c-2ccc2c1CCCC2(C)C ?
97.6

Any idea what cell viability was measured for O=P1(NCCCl)OCCCN1CCCl (stereo unspecified) [ifosfamide] ?
104

Any idea what cell viability was measured for O=C(NC[C@H](O)CN1CCc2ccccc2C1)c1cc(NC2COC2)ncn1 ?
96.1

* * *

Entries annotated with measured cell viability
# Tested on: Calu-3
# measurementDescription: cell viability relative to DMSO; higher = less toxic
# conditionSummary: 72 h; 10000 nM
The response must be a number in % with no trailing unit.

compound	propertyMeasured	endpointUnit	testResult
Cc1cc(C)cc(NC(=O)Cc2ccc(OC(C)(C)C(=O)O)cc2)c1 [efaproxiral]	cell viability	%	105
O=C1NC(=O)/C(=C/c2ccc3c(c2)OC(F)(F)O3)S1	cell viability	%	24.7
C1Cc2[nH]nc(-c3nn[nH]n3)c2C1 [MK-0354]	cell viability	%	101
CO[C@H]1C[C@H](O[C@@H]2/C(C)=C/C[C@@H]3C[C@@H](C[C@]4(CC[C@H](C)[C@@H](C5CCCCC5)O4)O3)OC(=O)[C@@H]3C=C(C)/C(=N/O)[C@H]4OC/C(=C\C=C\[C@@H]2C)[C@]43O)O[C@@H](C)[C@@H]1O [selamectin]	cell viability	%	91.2
CN(C)[C@@H]1C(O)=C(C(N)=O)C(=O)[C@@]2(O)C(O)=C3C(=O)c4c(O)cccc4[C@@](C)(O)[C@H]3C[C@@H]12 [tetracycline]	cell viability	%	108
C[C@H]1[C@@H](O)O[C@@H]2O[C@@]3(C)CC[C@H]4[C@H](C)CC[C@@H]1[C@@]24OO3 [ARTENIMOL]	cell viability	%	98.6

Any idea what cell viability was measured for O=C(O)CCc1c[nH]c2ccccc12 ?
107

Any idea what cell viability was measured for OCc1cc(C(O)CNCCCCCCOCCCCc2ccccc2)ccc1O (centres undefined) [salmeterol] ?
98.9

Any idea what cell viability was measured for NC[C@@H](O)CC(=O)O [aminohydroxybutyric-acid] ?
104

Any idea what cell viability was measured for Cc1cccc(C)c1NC(=O)c1ccc(N)cc1 [ameltolide] ?
97.1

* * *

# Tested on: Calu-3
# measurementDescription: cell viability relative to DMSO; higher = less toxic
# conditionSummary: 72 h; 10000 nM
propertyMeasured: cell viability (%)
The response must be a number in % with no trailing unit.

> print(dat)
                                inputsmiles  propertymeasured  endpointunit  testresult
1  COc1ccc(-c2csc(NC(=O)[C@H]3CCCCN3S(=O)(=O)c3ccc(C)cc3)n2)cc1    cell viability             %        99.2
2                            O=C1CNC(=O)CN1    cell viability             %          94
3  CN1CCN(Cc2ccc(Nc3ncc(Cl)c(Nc4ccccc4S(=O)(=O)N(C)C)n3)cc2)CC1    cell viability             %        80.2

Turning to the following molecule.
Any idea what cell viability was measured for CC1=C(/C=C/C(C)=C/C=C/C(C)=C/C(=O)O)C(C)(C)CCC1 ?
85.4
